The origin of these recorded values is the Human Domainome abundance scans (Beltran et al. 2025).

B1: POU domain, class 6, transcription factor 2, residues 609 to 663; numbered along this chain, P78424 (parent)
chain: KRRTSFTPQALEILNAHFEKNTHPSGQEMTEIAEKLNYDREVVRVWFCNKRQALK

- Variants of: B1
- experiment notes: abundance fitness (aPCA) (normalised: wild type 0, dead -1); higher = more abundant; growth selection in yeast, the domain comes from the species named
- experimental setup: Homo sapiens
Rule: abundance fitness of -0.2 or more gives y; anything lower gives n.

variant_code=R40F group=y
variant_code=L54M group=y
variant_code=K50F group=n
variant_code=A16C group=y
variant_code=L36W group=n
variant_code=R3Q group=y
variant_code=Q52C group=y
variant_code=V45Q group=n
variant_code=T7K group=n
variant_code=A10D group=y
variant_code=I13S group=n
variant_code=R51Y group=y
variant_code=F18E group=n
variant_code=K20S group=y
variant_code=K20G group=y
variant_code=T30S group=n
variant_code=K35H group=n
variant_code=F18W group=y
variant_code=K35Y group=y
variant_code=E41A group=n
